- SYSTEM: T1, Sco5333 (Streptomyces coelicolor, UniProt Q9ADD4 1-301)
- T1 sequence: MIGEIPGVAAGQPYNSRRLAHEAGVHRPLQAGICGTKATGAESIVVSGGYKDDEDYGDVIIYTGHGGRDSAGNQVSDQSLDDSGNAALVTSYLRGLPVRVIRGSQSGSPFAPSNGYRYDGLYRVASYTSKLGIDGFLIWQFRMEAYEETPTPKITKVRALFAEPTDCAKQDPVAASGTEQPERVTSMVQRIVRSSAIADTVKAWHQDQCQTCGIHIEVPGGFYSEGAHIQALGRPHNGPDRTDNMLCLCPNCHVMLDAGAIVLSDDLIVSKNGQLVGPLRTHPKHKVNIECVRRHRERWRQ
- PROCEDURE SUMMARY: EMSA

BINDER: 55ntDcm1 CmCTGG top (55nt-21/24) (dsDNA, 5mC at strand 1 pos 27) DNA 1: GAAACCCGACAGGACTATAAAGATACCTGGCGTTTCCCCCTGGAAGCTCCCTCGT DNA 2: ACGAGGGAGCTTCCAGGGGGAAACGCCAGGTATCTTTATAGTCCTGTCGGGTTTC
binding result: binds
//
BINDER: 55ntDcm1 top methylated (55nt-1/4) (dsDNA, 5mC at strand 1 pos 27) DNA 1: GAAACCCGACAGGACTATAAAGATACCAGGCGTTTCCCCCTGGAAGCTCCCTCGT DNA 2: ACGAGGGAGCTTCCAGGGGGAAACGCCTGGTATCTTTATAGTCCTGTCGGGTTTC
binding result: binds
//
BINDER: 55ntDcm1 CmCGGG bottom (55nt-30/31) (dsDNA, 5mC at strand 2 pos 27) DNA 1: GAAACCCGACAGGACTATAAAGATACCGGGCGTTTCCCCCTGGAAGCTCCCTCGT DNA 2: ACGAGGGAGCTTCCAGGGGGAAACGCCCGGTATCTTTATAGTCCTGTCGGGTTTC
binding result: binds

Numbers sourced from paper PMC4333417.
